Target: Cdc25B (Homo sapiens, UniProt P30305)
Sequence (P30305 1-580): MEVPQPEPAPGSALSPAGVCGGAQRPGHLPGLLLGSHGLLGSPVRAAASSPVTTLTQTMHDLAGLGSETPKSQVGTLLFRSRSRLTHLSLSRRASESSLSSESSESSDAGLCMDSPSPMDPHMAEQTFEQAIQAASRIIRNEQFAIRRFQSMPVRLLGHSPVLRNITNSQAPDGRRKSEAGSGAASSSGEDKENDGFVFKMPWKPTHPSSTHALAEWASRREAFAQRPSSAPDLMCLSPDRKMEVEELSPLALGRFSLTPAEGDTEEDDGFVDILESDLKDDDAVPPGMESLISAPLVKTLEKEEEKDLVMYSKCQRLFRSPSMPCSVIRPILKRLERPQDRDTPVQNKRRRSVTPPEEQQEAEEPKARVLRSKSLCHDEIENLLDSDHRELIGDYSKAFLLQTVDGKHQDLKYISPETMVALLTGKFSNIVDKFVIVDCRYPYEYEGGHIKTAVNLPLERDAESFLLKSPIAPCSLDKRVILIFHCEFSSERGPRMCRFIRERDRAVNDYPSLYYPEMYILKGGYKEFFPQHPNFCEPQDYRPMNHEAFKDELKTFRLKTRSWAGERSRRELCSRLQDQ
Assay: biochemical
Conditions: read-out: % Inhibition (cdc25B)
The entries below are paired with their reported inhibition at 10 µM.

// known answers, use as guide
INSERT INTO results (smiles_notation, value_kind, observed_value) VALUES
  ('O=C1C=C(SCCO)C(=O)c2ccccc21', 'inhibition at 10 µM', '67%'),
  ('O=C1C(SCCO)=C(SCCO)C(=O)c2ccccc21', 'inhibition at 10 µM', '83%'),
  ('NC(=O)CCCSC1=CC(=O)c2ccccc2C1=O', 'inhibition at 10 µM', '72%'),
  ('Cc1ccc2c(c1C)-c1c(ccc(C)c1C)C(=O)C2=O', 'inhibition at 10 µM', '99%');

Alright, here's another compound for you.
Requested read-out: inhibition at 10 µM. Entry: `NC(=O)CCSC1=CC(=O)c2ccccc2C1=O` 25%
